- tgt: DLK (Homo sapiens)
- Construct: 10 nM DLK, catalytic domain, Carna Biosiences; purchased Carna Biosciences ('Carna Biosiences' [sic])
- Sequence (Q12852 125-366 limits assumed): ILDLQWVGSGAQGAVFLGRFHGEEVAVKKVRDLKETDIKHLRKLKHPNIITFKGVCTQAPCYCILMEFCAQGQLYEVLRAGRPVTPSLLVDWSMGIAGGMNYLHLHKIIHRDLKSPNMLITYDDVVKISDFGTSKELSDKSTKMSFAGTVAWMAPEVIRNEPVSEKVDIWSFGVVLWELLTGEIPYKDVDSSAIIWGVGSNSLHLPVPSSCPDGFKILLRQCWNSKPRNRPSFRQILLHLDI
- protocol_text: DLK biochemical assay (TR-FRET, MKK7 phosphorylation)
- assay_setup: DLK catalytic domain, MKK7 substrate, 60 μM ATP
readout_label: IC50 (nM)

A. CC(CF)NC(=O)c1cc(-c2cnn(C(c3ccccc3)C(C)C)c2)cn2nc(N)nc12 (single isomer, unassigned) [Example I-141]
B. CC[C@H](C)NC(=O)c1cc(-c2cnn(C(c3ccc(C(F)(F)F)nc3)C(C)C)c2)cc2nc(N)nn12 (mixture of isomers) [Example I-104]
C. CC(CF)NC(=O)c1cc(-c2cnn(C(c3ccccc3)C(C)C)c2)cn2nc(N)nc12 (single isomer, unassigned) [Example I-140]
Request: Rank by IC50 (largest to smallest). Return value: ordered labels per request.
Response: A, B, C

====

- tgt: LZK (Homo sapiens)
- Construct: 10 nM LZK, catalytic domain, Carna Biosiences in assay buffer; purchased Carna Biosciences ('Carna Biosiences' [sic])
- Sequence (O43283 168-409 limits assumed): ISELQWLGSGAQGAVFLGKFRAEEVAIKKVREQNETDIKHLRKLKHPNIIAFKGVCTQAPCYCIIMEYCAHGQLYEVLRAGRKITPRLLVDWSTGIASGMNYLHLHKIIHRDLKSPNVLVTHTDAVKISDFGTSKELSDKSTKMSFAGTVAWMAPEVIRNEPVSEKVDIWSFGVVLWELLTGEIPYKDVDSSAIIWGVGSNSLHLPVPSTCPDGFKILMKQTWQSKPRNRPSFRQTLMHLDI
- protocol_text: LZK biochemical assay (TR-FRET, MKK7 phosphorylation)
- assay_setup: LZK catalytic domain, MKK7 substrate, 15 μM ATP
pIC50: −log10 of the molar value.
readout_label: pIC50

[
  {
    "compound": "CC[C@@H](c1ccc(C(F)(F)F)nc1)n1cc(-c2cc(C(=O)NC(C)(C)CO)c3nc(N)nn3c2)cn1 (single isomer, unassigned) [Example I-164]",
    "tgt": "LZK (Homo sapiens)",
    "pIC50": 7.28
  },
  {
    "compound": "C[C@@H](CO)NC(=O)c1cc(-c2cnn([C@H](c3ccc(C(F)(F)F)nc3)C3CCOCC3)c2)cn2nc(N)nc12 (single isomer, unassigned) [Example I-155]",
    "tgt": "LZK (Homo sapiens)",
    "pIC50": 8.41
  },
  {
    "compound": "C[C@@H](CO)NC(=O)c1cc(-c2cnn(C(c3ccc(C(F)(F)F)nc3)C3CCOCC3)c2)cn2nc(N)nc12 (mixture of isomers) [Example I-154]",
    "tgt": "LZK (Homo sapiens)",
    "pIC50": 8.34
  }
]

I. C[C@@H](CF)NC(=O)c1cc(-c2cnn(C3CCOc4ccccc43)c2)cn2nc(N)nc12 (mixture of isomers) [Example I-143]
II. CC[C@H](C)NC(=O)c1cc(-c2cnn(C3CCc4ccccc43)c2)cn2nc(N)nc12 (single isomer, unassigned) [Example I-14]
Request: When the recorded pIC50 values are compared, which is smaller: that of I or that of II ? Use the label to indicate which entry you chose.
Response: I

A. CC[C@H](C)NC(=O)c1cc(-c2cnn(C3CCC(F)(F)CC3)c2)cn2nc(N)nc12 [Example I-3]
B. CCC(c1ccc(C(F)F)nc1)n1cc(-c2cc(C(=O)N[C@@H](C)CC)c3nc(N)nn3c2)cn1 (single isomer, unassigned) [Example I-65]
C. CCC(c1ccc(C(F)(F)F)nc1)n1cc(-c2cc(C(=O)N[C@H]3CCOC3)n3nc(N)nc3c2)cn1 (single isomer, unassigned) [Example I-178]
D. Nc1nc2cc(-c3cnn(C(c4ccc(C(F)(F)F)nc4)C4CCOCC4)c3)cc(C(=O)N[C@H]3CCOC3)n2n1 (mixture of isomers) [Example I-183]
E. CC[C@H](C)NC(=O)c1cc(-c2cnn(C(c3ccnc(OC)c3)C(C)C)c2)cc2nc(N)nn12 (mixture of isomers) [Example I-126]
Request: Arrange items by their pIC50 values in increasing order. // list labels; follow requested order
Response: C, B, A, D, E

The measured values listed here are drawn from patent US20230086702A1.
